Listed next: entries and their corresponding IC50.
target: AmpC (Enterobacter cloacae); assay: β-lactamase enzyme inhibition assay, p99 AmpC (nitrocefin substrate)
Sequence (P05364 21-381): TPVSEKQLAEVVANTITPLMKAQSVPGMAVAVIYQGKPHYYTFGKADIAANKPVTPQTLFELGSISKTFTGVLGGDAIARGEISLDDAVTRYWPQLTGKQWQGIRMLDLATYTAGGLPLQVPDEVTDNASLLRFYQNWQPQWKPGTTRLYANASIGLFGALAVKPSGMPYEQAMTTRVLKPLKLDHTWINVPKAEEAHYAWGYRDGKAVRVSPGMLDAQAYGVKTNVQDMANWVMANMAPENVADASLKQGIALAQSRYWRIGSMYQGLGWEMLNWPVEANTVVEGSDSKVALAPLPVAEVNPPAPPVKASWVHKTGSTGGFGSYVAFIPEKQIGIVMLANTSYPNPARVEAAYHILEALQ

Reference set (2 entries):
| chemical smiles | IC50 |
| --- | --- |
| O=C(Cc1nnn(CC2CCNCC2)n1)N[C@H]1Cc2cccc(C(=O)O)c2OB1O | < 100 nM |
| CC(C)(C(=O)N[C@H]1Cc2cccc(C(=O)O)c2OB1O)n1cc(CNC(=N)N)nn1 | < 100 nM |

Query string: So what does the record say about IC50 for "NCCc1nnn(CC(=O)N[C@H]2Cc3cccc(C(=O)O)c3OB2O)n1" ?
Result string: < 100 nM

Query string: Given the entry "N[C@@H]1CCN(C(=O)c2cn(CC(=O)N[C@H]3Cc4cccc(C(=O)O)c4OB3O)nn2)C1" , report its measured IC50.
Result string: < 100 nM
